Would you mind telling me the reported pIC50 of each entry?
- Study Target: 17-beta-hydroxysteroid dehydrogenase type 3 (Homo sapiens, UniProt P37058)
- Sequence (P37058 whole entry): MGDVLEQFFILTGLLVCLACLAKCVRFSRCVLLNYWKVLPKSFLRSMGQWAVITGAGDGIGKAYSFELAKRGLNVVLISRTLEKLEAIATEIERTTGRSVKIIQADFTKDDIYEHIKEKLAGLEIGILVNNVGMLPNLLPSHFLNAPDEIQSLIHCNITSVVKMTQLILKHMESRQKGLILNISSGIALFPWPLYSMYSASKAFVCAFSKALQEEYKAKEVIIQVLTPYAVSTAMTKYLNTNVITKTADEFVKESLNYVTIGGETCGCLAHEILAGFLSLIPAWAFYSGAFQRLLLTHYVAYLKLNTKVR
- Procedure Summary: Inhibitory concentration against type-3 17-beta-HSD expressed in HEK293 cells
One number for each entry, as −log10 of the molar value.

As a guide, the following entries are already answered.
Compound	pIC50
CCC(C)[C@@]1(O)CC[C@@]2(C)C(CC[C@@H]3[C@@H]2CC[C@]2(C)C(=O)CC[C@@H]32)C1 (stereo not given in full)	7.14
C[C@]12CC[C@](O)(Cc3ccccc3)CC1CC[C@@H]1[C@@H]2CC[C@]2(C)C(=O)CC[C@@H]12 (stereo not given in full)	7.24
CCC[C@@]1(O)CC[C@@]2(C)C(CC[C@@H]3[C@@H]2CC[C@]2(C)C(=O)CC[C@@H]32)C1 (stereo not given in full)	7.17
C[C@]12CC[C@](O)(CC3CCCCC3)CC1CC[C@@H]1[C@@H]2CC[C@]2(C)C(=O)CC[C@@H]12 (stereo not given in full)	7.06

Field: next compound
Task: pIC50 lookup needed for C[C@]12CC[C@@H](O)C[C@H]1CC[C@@H]1[C@@H]2CC[C@]2(C)C(=O)CC[C@@H]12 [ETIOCHOLANOLONE] , thanks.
Result: 6.48

---

- Study Target: 17-beta-hydroxysteroid dehydrogenase type 3 (Homo sapiens) (UniProt P37058)
- Procedure Summary: Percent inhibition against type-3 17-beta-HSD expressed in HEK293 cells at 3 uM
- Format: cell-based
Measurement Name: inhibition (%)
Numbers only, in %.

Past entries and their recorded results:
Molecule	Study Target	Unit Abbrev	inhibition
C[C@@]1(O)CC[C@@]2(C)C(CC[C@@H]3[C@@H]2CC[C@]2(C)C(=O)CC[C@@H]32)C1 (stereo partly drawn)	17-beta-hydroxysteroid dehydrogenase type 3 (Homo sapiens) (UniProt P37058)	%	93
CCCCCC[C@@]1(O)CC[C@@]2(C)C(CC[C@@H]3[C@@H]2CC[C@]2(C)C(=O)CC[C@@H]32)C1 (stereo partly drawn)	17-beta-hydroxysteroid dehydrogenase type 3 (Homo sapiens) (UniProt P37058)	%	96
C[C@]12CC[C@](O)(Cc3ccccc3)CC1CC[C@@H]1[C@@H]2CC[C@]2(C)C(=O)CC[C@@H]12 (stereo partly drawn)	17-beta-hydroxysteroid dehydrogenase type 3 (Homo sapiens) (UniProt P37058)	%	94
C[C@]12CC[C@@H](O)C[C@H]1CC[C@@H]1[C@@H]2CC[C@]2(C)C(=O)CC[C@@H]12	17-beta-hydroxysteroid dehydrogenase type 3 (Homo sapiens) (UniProt P37058)	%	88
C[C@]12CC[C@](O)(C3CCCCC3)CC1CC[C@@H]1[C@@H]2CC[C@]2(C)C(=O)CC[C@@H]12 (stereo partly drawn)	17-beta-hydroxysteroid dehydrogenase type 3 (Homo sapiens) (UniProt P37058)	%	93
CCC(C)[C@@]1(O)CC[C@@]2(C)C(CC[C@@H]3[C@@H]2CC[C@]2(C)C(=O)CC[C@@H]32)C1 (stereo partly drawn)	17-beta-hydroxysteroid dehydrogenase type 3 (Homo sapiens) (UniProt P37058)	%	90
C[C@]12CC[C@](O)(CCC3CCCCC3)CC1CC[C@@H]1[C@@H]2CC[C@]2(C)C(=O)CC[C@@H]12 (stereo partly drawn)	17-beta-hydroxysteroid dehydrogenase type 3 (Homo sapiens) (UniProt P37058)	%	93

Now consider the entry below.
Task: Recorded inhibition for CCC[C@@]1(O)CC[C@@]2(C)C(CC[C@@H]3[C@@H]2CC[C@]2(C)C(=O)CC[C@@H]32)C1 (stereo partly drawn) , please?
Result: 94
